Source listed as patent US20240400547A1.

- target.or.test.system: IRAK4 (Homo sapiens)
- Construct: expressed in transfected cells; host or cells: K562 IRAK4-HiBiT cells
- Sequence (Q9NWZ3 whole entry): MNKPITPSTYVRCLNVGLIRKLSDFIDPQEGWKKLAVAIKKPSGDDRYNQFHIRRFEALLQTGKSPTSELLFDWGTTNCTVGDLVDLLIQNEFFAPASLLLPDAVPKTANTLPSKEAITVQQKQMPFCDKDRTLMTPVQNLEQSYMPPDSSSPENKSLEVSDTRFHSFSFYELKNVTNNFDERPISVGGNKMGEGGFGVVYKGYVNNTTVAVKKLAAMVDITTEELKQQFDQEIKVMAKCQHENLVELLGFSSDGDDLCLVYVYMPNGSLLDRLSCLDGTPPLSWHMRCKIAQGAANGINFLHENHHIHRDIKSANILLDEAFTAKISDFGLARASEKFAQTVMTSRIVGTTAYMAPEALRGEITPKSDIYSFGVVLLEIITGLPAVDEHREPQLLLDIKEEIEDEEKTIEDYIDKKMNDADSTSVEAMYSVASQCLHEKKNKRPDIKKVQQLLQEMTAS
- experimental.details: Target protein degradation in K562 IRAK4-HiBiT cells (Nano-Glo HiBiT)
- Assay type: cell-based
- measurement.parameters: 16 to 18 hours
Structures can show the parent of a compound that is named as a salt.
quantity: DC50 (nM)

[[record]]
compound = "CN(CCCOCCCc1cccc2c1ccc1onc(C3CCC(=O)NC3=O)c12)CC1CCC(n2cc(NC(=O)c3coc(-c4ccnc(NCC5CC5)c4)n3)c(C(F)F)n2)CC1 (stereo not shown) [Hydrochloride of WX013]"
target_or_test_system = "IRAK4 (Homo sapiens)"
value_reported = 48.7

[[record]]
compound = "CC(C)(O)c1cc2nc([C@H]3CC[C@H](CN4CCN(CC(=O)Nc5ccc6c(C7CCC(=O)NC7=O)noc6c5)CC4)CC3)sc2cc1NC(=O)c1cccc(C(F)(F)F)n1 (stereo partly shown) [Formate of WX026]"
target_or_test_system = "IRAK4 (Homo sapiens)"
value_reported = 0.78


A = CN(CCCOCCCc1ccc2c(ccc3occ(C4CCC(=O)NC4=O)c32)c1)C[C@H]1CC[C@H](n2cc(NC(=O)c3coc(-c4ccnc(NCC5CC5)c4)n3)c(C(F)F)n2)CC1 (stereo partly shown) [Hydrochloride of WX008]
B = O=C1CCC(c2coc3cc(NC(=O)CN4CCN(C[C@H]5CC[C@H](N6CC(NC(=O)c7coc(-c8ccnc(NCC9CC9)c8)n7)C(C(F)F)N6)CC5)CC4)ccc23)C(=O)N1 (stereo partly shown) [Hydrochloride of WX002]
Request: // compare: A vs B , metric DC50, want the smaller Your choice should be expressed through its label.
Response: B

###

- experimental.details: Pharmacokinetic evaluation in mice
- Assay type: in vivo, C57BL/6N or CD-1 male mice
- measurement.parameters: male, mouse, plasma, po, intragastric administration 10 mg/kg, experimental operation A, fasted overnight, read-out: Bioavailability F
quantity: bioavailability (%)
Entry rule: numbers only, all in %.

Request: Entry under review: O=C1CCC(c2coc3ccc4c(NC(=O)CN5CCN(C[C@H]6CC[C@H](n7cc(NC(=O)c8coc(-c9ccnc(NCC%10CC%10)c9)n8)c(C(F)F)n7)CC6)CC5)cccc4c23)C(=O)N1 (stereo partly shown) [Trifluoroacetate of WX011] . Reported bioavailability?
Response: 6.53

###

- experimental.details: Pharmacokinetic evaluation in mice
- Assay type: in vivo, C57BL/6N or CD-1 male mice
- measurement.parameters: male, CD-1, mouse, plasma, intravenous injection 2 mg/kg, experimental operation B, fasted overnight, read-out: Elimination half-life (converted)
Counter-ions that a name gives are not always drawn.
quantity: half-life (h)

a = CC(C)(O)c1cc2nc(C3CCC(CN4CCN(CC(=O)Nc5cccc6c5ccc5onc(C7CCC(=O)NC7=O)c56)CC4)CC3)sc2cc1NC(=O)c1cccc(C(F)(F)F)n1 (centres unmarked) [Formate of WX017]
b = O=C1CCC(c2noc3ccc4c(NC(=O)C(F)(F)C5CCN(CC6CCC(n7cc(NC(=O)c8coc(-c9ccnc(NCC%10CC%10)c9)n8)c(C(F)F)n7)CC6)CC5)cccc4c23)C(=O)N1 (centres unmarked) [Hydrochloride of WX018]
Request: Return label of the item with the larger half-life. Candidates: a , b . Your choice should be expressed through its label.
Response: b
(b: 5.22 h, a: 2.32 h)

###

- target.or.test.system: IRAK4 (Homo sapiens)
- Construct: expressed in transfected cells; host or cells: K562 IRAK4-HiBiT cells
- experimental.details: Target protein degradation in K562 IRAK4-HiBiT cells (Nano-Glo HiBiT)
- Format: cell-based
- measurement.parameters: 16 to 18 hours, read-out: Maximum degradation rate
Structures can show the parent of a compound that is named as a salt.
quantity: Dmax (%)

[[record]]
compound = "CC(C)(O)c1cc2nc([C@H]3CC[C@H](CN4CCN(CC(=O)Nc5ccc6c(ccc7onc(C8CCC(=O)NC8=O)c76)c5)CC4)CC3)sc2cc1NC(=O)c1cccc(C(F)(F)F)n1 (some centres unmarked) [Formate of WX020]"
quantity = "Dmax"
value_reported = 75.1

[[record]]
compound = "CC(C)(O)c1cc2nc(C3CCC(CN4CCN(CC(=O)Nc5cccc6c5ccc5onc(C7CCC(=O)NC7=O)c56)CC4)CC3)sc2cc1NC(=O)c1cccc(C(F)(F)F)n1 (centres unmarked) [Formate of WX017]"
quantity = "Dmax"
value_reported = 73.9

[[record]]
compound = "O=C1CCC(c2noc3ccc4cc(NC(=O)CN5CCN(CC6CCC(n7cc(NC(=O)c8coc(-c9ccnc(NCC%10CC%10)c9)n8)c(C(F)F)n7)CC6)CC5)ccc4c23)C(=O)N1 (centres unmarked) [Hydrochloride of WX015]"
quantity = "Dmax"
value_reported = 100


a = CC(C)(O)c1cc2nc([C@H]3CC[C@H](CN4CCN(CC(=O)Nc5ccc6c(C7CCC(=O)NC7=O)noc6c5)CC4)CC3)sc2cc1NC(=O)c1cccc(C(F)(F)F)n1 (some centres unmarked) [Formate of WX026]
b = O=C1CCC(c2noc3ccc4c(NC(=O)C(F)(F)C5CCN(CC6CCC(n7cc(NC(=O)c8coc(-c9ccnc(NCC%10CC%10)c9)n8)c(C(F)F)n7)CC6)CC5)cccc4c23)C(=O)N1 (centres unmarked) [Hydrochloride of WX018]
Request: Return label of the item with the larger Dmax. Candidates: a , b . Your choice should be expressed through its label.
Response: b
(b: 119%, a: 80.3%)

###

- experimental.details: Pharmacokinetic evaluation in mice
- Format: in vivo, C57BL/6N or CD-1 male mice
- measurement.parameters: male, mouse, plasma, intravenous injection 2 mg/kg, experimental operation A, fasted overnight, read-out: Plasma clearance rate
quantity: clearance (L/h/kg)
Entry rule: numbers only, all in L/h/kg.

Request: Entry under review: O=C1CCC(c2coc3ccc4c(NC(=O)CN5CCN(C[C@H]6CC[C@H](n7cc(NC(=O)c8coc(-c9ccnc(NCC%10CC%10)c9)n8)c(C(F)F)n7)CC6)CC5)cccc4c23)C(=O)N1 (stereo partly shown) [Trifluoroacetate of WX011] . Reported clearance?
Response: 0.166

###

- experimental.details: Pharmacokinetic evaluation in mice
- Type: in vivo, C57BL/6N or CD-1 male mice
- measurement.parameters: male, mouse, plasma, intravenous injection 2 mg/kg, experimental operation A, fasted overnight, read-out: Apparent volume of distribution
quantity: Vd (L/kg)
Entry rule: numbers only, all in L/kg.

Request: Entry under review: O=C1CCC(c2coc3ccc4c(NC(=O)CN5CCN(C[C@H]6CC[C@H](n7cc(NC(=O)c8coc(-c9ccnc(NCC%10CC%10)c9)n8)c(C(F)F)n7)CC6)CC5)cccc4c23)C(=O)N1 (stereo partly shown) [Trifluoroacetate of WX011] . Reported Vd?
Response: 1.8

###

- target.or.test.system: IKZF1 (Homo sapiens, UniProt Q13422+Q96SW2)
- Construct: host or cells: MM.1S cells
- Sequence (Q13422 whole entry): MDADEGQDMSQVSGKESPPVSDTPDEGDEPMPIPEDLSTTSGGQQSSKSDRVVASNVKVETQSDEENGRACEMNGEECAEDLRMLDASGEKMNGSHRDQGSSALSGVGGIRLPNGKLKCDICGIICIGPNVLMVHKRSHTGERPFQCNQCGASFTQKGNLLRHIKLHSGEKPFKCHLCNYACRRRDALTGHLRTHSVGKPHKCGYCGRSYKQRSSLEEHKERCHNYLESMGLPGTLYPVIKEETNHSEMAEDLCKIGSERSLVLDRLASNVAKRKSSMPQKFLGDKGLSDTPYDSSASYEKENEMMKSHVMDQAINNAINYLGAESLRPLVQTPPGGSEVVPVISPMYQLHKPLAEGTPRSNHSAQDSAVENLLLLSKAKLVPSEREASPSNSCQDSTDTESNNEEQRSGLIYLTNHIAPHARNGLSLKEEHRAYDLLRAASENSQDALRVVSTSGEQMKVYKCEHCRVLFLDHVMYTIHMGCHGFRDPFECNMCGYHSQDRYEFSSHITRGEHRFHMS
- Sequence (Q96SW2 whole entry): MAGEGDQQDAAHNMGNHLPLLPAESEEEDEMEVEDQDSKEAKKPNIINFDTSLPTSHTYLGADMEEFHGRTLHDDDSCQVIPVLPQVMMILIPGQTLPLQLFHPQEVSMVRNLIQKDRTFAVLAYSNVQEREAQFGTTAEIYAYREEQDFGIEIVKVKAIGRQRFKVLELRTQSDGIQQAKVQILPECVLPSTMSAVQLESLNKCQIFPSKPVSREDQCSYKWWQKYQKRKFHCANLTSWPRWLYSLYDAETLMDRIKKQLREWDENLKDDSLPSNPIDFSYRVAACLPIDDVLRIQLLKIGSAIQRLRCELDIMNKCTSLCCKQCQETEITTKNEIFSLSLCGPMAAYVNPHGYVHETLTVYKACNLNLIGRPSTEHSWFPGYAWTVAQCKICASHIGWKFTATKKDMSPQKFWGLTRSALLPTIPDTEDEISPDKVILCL
- Sequence (Q16531 whole entry partner): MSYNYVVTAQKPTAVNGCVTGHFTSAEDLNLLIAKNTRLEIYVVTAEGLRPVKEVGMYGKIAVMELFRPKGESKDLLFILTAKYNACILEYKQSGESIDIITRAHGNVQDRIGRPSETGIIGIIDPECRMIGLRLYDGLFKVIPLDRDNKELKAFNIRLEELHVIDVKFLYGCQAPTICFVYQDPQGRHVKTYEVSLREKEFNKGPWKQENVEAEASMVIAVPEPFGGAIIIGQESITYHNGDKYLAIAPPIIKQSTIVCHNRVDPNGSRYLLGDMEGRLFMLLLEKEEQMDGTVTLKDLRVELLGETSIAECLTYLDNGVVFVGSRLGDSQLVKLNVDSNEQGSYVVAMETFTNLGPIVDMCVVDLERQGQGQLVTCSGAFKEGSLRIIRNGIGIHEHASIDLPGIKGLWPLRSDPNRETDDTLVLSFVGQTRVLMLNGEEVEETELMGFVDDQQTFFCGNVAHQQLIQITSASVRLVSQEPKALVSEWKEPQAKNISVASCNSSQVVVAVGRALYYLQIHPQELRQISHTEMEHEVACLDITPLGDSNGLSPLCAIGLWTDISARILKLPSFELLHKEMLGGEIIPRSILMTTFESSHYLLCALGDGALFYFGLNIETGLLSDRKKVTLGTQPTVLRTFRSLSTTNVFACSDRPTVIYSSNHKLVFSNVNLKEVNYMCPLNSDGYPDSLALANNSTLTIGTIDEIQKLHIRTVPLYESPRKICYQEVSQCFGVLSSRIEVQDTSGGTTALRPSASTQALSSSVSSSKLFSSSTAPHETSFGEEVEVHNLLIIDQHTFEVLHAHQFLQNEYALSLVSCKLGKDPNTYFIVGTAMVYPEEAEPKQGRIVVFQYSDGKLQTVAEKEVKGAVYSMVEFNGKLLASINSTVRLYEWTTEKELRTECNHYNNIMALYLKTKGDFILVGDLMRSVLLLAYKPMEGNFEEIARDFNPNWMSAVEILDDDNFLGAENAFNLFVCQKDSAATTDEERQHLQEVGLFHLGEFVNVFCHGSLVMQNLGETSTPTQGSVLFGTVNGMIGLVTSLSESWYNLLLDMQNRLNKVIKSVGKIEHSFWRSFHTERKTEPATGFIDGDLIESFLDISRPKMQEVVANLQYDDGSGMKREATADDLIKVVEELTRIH
- experimental.details: In Cell Western of IKZF1 protein expression level in MM.1S cells
- Assay type: cell-based
- measurement.parameters: IKZF1, MM.1S cells, 24 hours
Structures can show the parent of a compound that is named as a salt.
quantity: DC50 (µM)

a = O=C1CCC(c2noc3ccc4c(NC(=O)C(F)(F)C5CCN(CC6CCC(n7cc(NC(=O)c8coc(-c9ccnc(NCC%10CC%10)c9)n8)c(C(F)F)n7)CC6)CC5)cccc4c23)C(=O)N1 (stereo not drawn) [Hydrochloride of WX018]
b = CN(CCCOCCCc1ccc2c(ccc3onc(C4CCC(=O)NC4=O)c32)c1)C[C@H]1CC[C@H](n2cc(NC(=O)c3coc(-c4ccnc(NCC5CC5)c4)n3)c(C(F)F)n2)CC1 (stereo partly drawn) [Hydrochloride of WX016]
Request: Return label of the item with the larger DC50. Candidates: a , b . Your choice should be expressed through its label.
Response: a

###

- target.or.test.system: IKZF1 (Homo sapiens, UniProt Q13422+Q96SW2)
- Construct: host or cells: MM.1S cells
- experimental.details: In Cell Western of IKZF1 protein expression level in MM.1S cells
- Format: cell-based
- measurement.parameters: MM1.S; IKZF1, MM.1S cells, 24 hours; read-out: Maximum degradation rate Dmax
Where a name gives a salt, the structure may show the parent alone.
quantity: Dmax (%)

[[record]]
molecule = "CC(C)(O)c1cc2nc([C@H]3CC[C@H](CN4CCC(C(F)(F)C(=O)Nc5cccc6c(C7CCC(=O)NC7=O)noc56)CC4)CC3)sc2cc1NC(=O)c1cccc(C(F)(F)F)n1 (some centres unmarked) [Formate of WX023]"
unit_spec = "%"
value_reported = 57.2

[[record]]
molecule = "CC(C)(O)c1cc2nc([C@H]3CC[C@H](CN4CC5(CC(CCNc6ccc7c(ccc8onc(C9CCC(=O)NC9=O)c87)c6)C5)C4)CC3)sc2cc1NC(=O)c1cccc(C(F)(F)F)n1 (some centres unmarked)"
unit_spec = "%"
value_reported = 87.6

[[record]]
molecule = "CN(CCCOCCCc1ccc2c(ccc3occ(C4CCC(=O)NC4=O)c32)c1)C[C@H]1CC[C@H](n2cc(NC(=O)c3coc(-c4ccnc(NCC5CC5)c4)n3)c(C(F)F)n2)CC1 (some centres unmarked) [Hydrochloride of WX008]"
unit_spec = "%"
value_reported = 81.4


I = O=C1CCC(c2noc3c(NC(=O)C(F)(F)C4CCN(C[C@H]5CC[C@H](n6cc(NC(=O)c7coc(-c8ccnc(NCC9CC9)c8)n7)c(C(F)F)n6)CC5)CC4)cccc23)C(=O)N1 (some centres unmarked) [Formate of WX024]
II = O=C1CCC(c2noc3ccc4c(NC(=O)C(F)(F)C5CCN(CC6CCC(n7cc(NC(=O)c8coc(-c9ccnc(NCC%10CC%10)c9)n8)c(C(F)F)n7)CC6)CC5)cccc4c23)C(=O)N1 (centres unmarked) [Hydrochloride of WX018]
Request: // compare: I vs II , metric Dmax, want the smaller Your choice should be expressed through its label.
Response: I
